Ref: patent US20220402948A1

Test system: A431
RUN DESCRIPTION: A431 cell proliferation assay (CellTiter Glo, 72 hours)
Type: cell-based
STUDY CONDITIONS: Homo sapiens, A-431, 72 h, cell proliferation, A431, 72 hours, Table 2; read-out: A431 IC50
PARAMETER: IC50 (nM)

LINE NOTATION: COc1cnn(-c2ccc(Nc3nc(Nc4cc(OC)c(N5CCC(N6CCN(C)CC6)CC5)cc4C)ncc3Br)c(P(C)(C)=O)c2)c1
PARAMETER: IC50
VAL: 1060

LINE NOTATION: CCc1cc(Nc2ncc(Cl)c(Nc3ccc(-c4cscn4)cc3P(C)(C)=O)n2)c(OC)cc1N1CCC(N2CCN(C)CC2)CC1
PARAMETER: IC50
VAL: 769

LINE NOTATION: C#Cc1cnc(-c2ccc(Nc3nc(Nc4cc(CC)c(N5CCC(N6CCN(C)CC6)CC5)cc4OC)ncc3Br)c(P(C)(C)=O)c2)cn1
PARAMETER: IC50
VAL: 693

LINE NOTATION: CCc1cc(Nc2ncc(Br)c(Nc3ccc(-c4cnn(C)n4)cc3P(C)(C)=O)n2)c(OC)cc1N1CCC(N2CCN(C)CC2)CC1
PARAMETER: IC50
VAL: 773
